target: UniProt P14618; test: In vitro pyruvate kinase assay, PKM2; details: printed in the PKM2 IC50 column; footnote a: value refers to EC50; read-out: PKM2 EC50 (compound behaves as an activator)
Sequence (P14618 whole entry): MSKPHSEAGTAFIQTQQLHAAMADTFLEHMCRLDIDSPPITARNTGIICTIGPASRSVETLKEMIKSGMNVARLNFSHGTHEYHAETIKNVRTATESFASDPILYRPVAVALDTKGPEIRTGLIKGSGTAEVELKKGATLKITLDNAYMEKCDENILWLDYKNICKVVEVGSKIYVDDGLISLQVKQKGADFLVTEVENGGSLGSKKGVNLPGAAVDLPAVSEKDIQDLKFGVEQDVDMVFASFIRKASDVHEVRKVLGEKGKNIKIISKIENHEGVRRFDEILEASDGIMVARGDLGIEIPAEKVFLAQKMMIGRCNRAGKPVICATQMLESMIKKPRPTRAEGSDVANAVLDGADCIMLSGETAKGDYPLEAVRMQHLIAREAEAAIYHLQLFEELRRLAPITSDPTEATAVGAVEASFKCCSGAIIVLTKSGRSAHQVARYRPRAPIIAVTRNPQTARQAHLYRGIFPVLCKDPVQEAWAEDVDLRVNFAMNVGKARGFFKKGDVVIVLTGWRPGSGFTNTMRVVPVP
For each entry below, report its EC50 value.
Answers are plain numbers, in nM.

// worked examples, EC50 included
molecule	EC50 / nM
O=c1oc2c(O)c(O)cc3c(=O)oc4c(O)c(O)cc1c4c23	70
O=c1oc2c(O)c(O)ccc2c2cc(O)c(O)cc12	30

Ask | I have this molecule here, O=C(COP(=O)(O)O)[C@@H](O)[C@H](O)[C@H](O)COP(=O)(O)O [FBP, Fructose-1,6-biphosphate, reference compound] , and I need its recorded EC50.
Reply | 50

All figures here come from paper PMC9919951.
